- PROCEDURE TEXT: Cytotoxicity against human C8166 cells by MTT assay
- Type: cell-based
Lab note: compare CC50 with 50 µM, writing true if less and false if equal or more.

[
  {
    "CHEMICAL SMILES": "Cc1cc(S(N)(=O)=O)ccc1NC(=O)COc1ccc(Cl)cc1Oc1ccc2ccccc2c1",
    "CLASS LABEL": "false"
  },
  {
    "CHEMICAL SMILES": "Cc1cc(S(N)(=O)=O)ccc1NC(=O)COc1ccc(F)cc1Oc1cc2ccccc2cc1C",
    "CLASS LABEL": "false"
  },
  {
    "CHEMICAL SMILES": "Cc1cc(S(N)(=O)=O)ccc1NC(=O)COc1ccc(F)cc1Oc1ccc2ccccc2c1Cl",
    "CLASS LABEL": "true"
  },
  {
    "CHEMICAL SMILES": "Cc1cc(S(N)(=O)=O)ccc1NC(=O)COc1ccc(Cl)cc1Oc1c(C)cc2ccccc2c1Cl",
    "CLASS LABEL": "true"
  },
  {
    "CHEMICAL SMILES": "Cc1cc(S(N)(=O)=O)ccc1NC(=O)COc1ccc(F)cc1Oc1ccc2ccccc2c1Br",
    "CLASS LABEL": "true"
  },
  {
    "CHEMICAL SMILES": "Cc1cc(S(N)(=O)=O)ccc1NC(=O)COc1ccc(Cl)cc1Oc1cc2ccccc2cc1C",
    "CLASS LABEL": "false"
  },
  {
    "CHEMICAL SMILES": "Cc1cc(S(N)(=O)=O)ccc1NC(=O)COc1ccc(Cl)cc1Oc1ccc2cc(C#N)ccc2c1",
    "CLASS LABEL": "false"
  },
  {
    "CHEMICAL SMILES": "Cc1cc(S(N)(=O)=O)ccc1NC(=O)COc1ccc(Cl)cc1Oc1ccc2ccccc2c1Cl",
    "CLASS LABEL": "true"
  },
  {
    "CHEMICAL SMILES": "Cc1cc(S(N)(=O)=O)ccc1NC(=O)COc1ccc(Cl)cc1C(=O)c1cc(Cl)cc(C#N)c1",
    "CLASS LABEL": "false"
  },
  {
    "CHEMICAL SMILES": "Cc1cc(S(N)(=O)=O)ccc1NC(=O)COc1ccc(Cl)cc1Oc1ccc2ccccc2c1Br",
    "CLASS LABEL": "true"
  },
  {
    "CHEMICAL SMILES": "Cc1cc(S(N)(=O)=O)ccc1NC(=O)COc1ccc(F)cc1Oc1cccc2ccccc12",
    "CLASS LABEL": "true"
  },
  {
    "CHEMICAL SMILES": "Cc1cc(S(N)(=O)=O)ccc1NC(=O)COc1ccc(F)cc1Oc1ccc2cc(Br)ccc2c1",
    "CLASS LABEL": "false"
  },
  {
    "CHEMICAL SMILES": "Cc1cc(S(N)(=O)=O)ccc1NC(=O)COc1ccc(F)cc1Oc1ccc2ccccc2c1",
    "CLASS LABEL": "false"
  },
  {
    "CHEMICAL SMILES": "Cc1cn([C@H]2C[C@H](N=[N+]=[N-])[C@@H](CO)O2)c(=O)[nH]c1=O",
    "CLASS LABEL": "false"
  },
  {
    "CHEMICAL SMILES": "Cc1cc(S(N)(=O)=O)ccc1NC(=O)COc1ccc(F)cc1Oc1ccc2ccccc2c1C",
    "CLASS LABEL": "false"
  },
  {
    "CHEMICAL SMILES": "Cc1cc(S(N)(=O)=O)ccc1NC(=O)COc1ccc(F)cc1Oc1ccc2cc(Br)ccc2c1Cl",
    "CLASS LABEL": "false"
  },
  {
    "CHEMICAL SMILES": "Cc1cc(S(N)(=O)=O)ccc1NC(=O)COc1ccc(F)cc1Oc1ccc2cc(C#N)ccc2c1Cl",
    "CLASS LABEL": "true"
  },
  {
    "CHEMICAL SMILES": "Cc1cc(S(N)(=O)=O)ccc1NC(=O)COc1ccc(F)cc1Oc1ccc2cc(C#N)ccc2c1Br",
    "CLASS LABEL": "true"
  }
]
